Provenance of the data: paper PMC5986712

# Assay target: stabilized p53-Y220C DBD (residues 94–312) (Homo sapiens, UniProt P04637, M133L/N239Y/N268D/V203A/Y220C)
# Construct: Stabilized p53-Y220C DBD (residues 94–312) was expressed and purified; 6xHis / lipoyl domain / TEV protease cleavage site (N, cleaved yes); made in house; host or cells: E. coli C41
# Method description: Differential scanning fluorimetry (DSF), thermal stabilization of Y220C
# Type: binding
# Measurement conditions: 8 μM protein, 10 × SYPRO Orange, 250 μM ligand
Threshold rule: ΔTm at 250 µM greater than or equal to 0.8 °C is MET; below that, NOT MET.

These recorded examples may help you get a feel for the data.
Q) Textbook exercise: given the entry O=C(O)c1cc(OCCO)c(-n2cccc2)c(I)c1O [Compound 54] , state whether its ΔTm at 250 µM is greater than or equal to 0.8 °C.
A) NOT MET

Q) Textbook exercise: given the entry COc1ccc(-c2cc(C(=O)O)c(O)c(I)c2-n2cccc2)cc1 [Compound 35] , state whether its ΔTm at 250 µM is greater than or equal to 0.8 °C.
A) MET

Q) Textbook exercise: given the entry COC(=O)c1cc(I)c(-n2cccc2)c(I)c1O [Compound 8] , state whether its ΔTm at 250 µM is greater than or equal to 0.8 °C.
A) NOT MET

Q) Textbook exercise: given the entry O=C(O)c1cc(-c2ccccc2)c(-n2cccc2)c(I)c1O [Compound 33] , state whether its ΔTm at 250 µM is greater than or equal to 0.8 °C.
A) MET

Q) Textbook exercise: given the entry CN1CCN(C(=O)c2cc(I)c(-n3cccc3)c(I)c2O)CC1 [Compound 11] , state whether its ΔTm at 250 µM is greater than or equal to 0.8 °C.
A) MET

Consider the record given below.
Q) Textbook exercise: given the entry CN(C)Cc1cc(I)c(-n2cccc2)c(I)c1O [Compound 17] , state whether its ΔTm at 250 µM is greater than or equal to 0.8 °C.
A) MET

---

# Method description: Solubility (qualitative observation)
# Assay type: physicochemical
Readout: solubility (in words)

Q) Requested field: solubility (in words). Item: CCNC(=O)c1c(O)c(I)c(-n2cccc2)c2sc(N(CC)CC)nc12 [Compound 72]
A) reduced solubility

Q) Requested field: solubility (in words). Item: CCN(CC)c1nc2c(C(=O)OC)c(O)c(I)c(-n3cccc3)c2s1 [Compound 71]
A) reduced solubility

---

# Method description: Cell viability in other cell lines (lacking Y220C)
# Assay type: cell-based
# Measurement conditions: human, at concentrations below 40 μM
Readout: viability at 72 h

Q) Requested field: viability at 72 h. Item: "CCNC(=O)c1c(O)c(I)c(-n2cccc2)c2sc(N(CC)CC)nc12"
A) > 80%

---

# Assay target: stabilized p53-Y220C DBD (residues 94–312) (Homo sapiens, UniProt P04637, M133L/N239Y/N268D/V203A/Y220C)
# Construct: Stabilized p53-Y220C DBD (residues 94–312) was expressed and purified; 6xHis / lipoyl domain / TEV protease cleavage site (N, cleaved yes); made in house; host or cells: E. coli C41
# Method description: Differential scanning fluorimetry (DSF), thermal stabilization of Y220C
# Type: binding
# Measurement conditions: 8 μM protein, 10 × SYPRO Orange, 250 μM ligand
Exercise: state measured ΔTm at 250 µM for each of the compounds provided.
One number for each entry, in °C.

Below are 5 compounds. Give each one its ΔTm at 250 µM.
1. O=c1[nH][nH]c2c(I)c(-n3cccc3)c(I)cc12
2. CCN(CC)c1nc2c(C(=O)O)c(O)c(I)c(-n3cccc3)c2s1
3. O=C(O)c1cc(OCCC(F)(F)F)c(-n2cccc2)c(I)c1O
4. C=CCOc1cc(C(=O)O)c(O)c(I)c1-n1cccc1
5. CC(C)COc1cc(C(=O)O)c(O)c(I)c1-n1cccc1

A)
[1.5, 2, 1.4, 1.8, 1.4]
